Source of measurements: patent US20220242945A1

# System name: T1, THP-1 derived nhIL-23 (human, UniProt Q9NPF7 20-189; P29460 23-328)
# T1 sequence (looked up) 1: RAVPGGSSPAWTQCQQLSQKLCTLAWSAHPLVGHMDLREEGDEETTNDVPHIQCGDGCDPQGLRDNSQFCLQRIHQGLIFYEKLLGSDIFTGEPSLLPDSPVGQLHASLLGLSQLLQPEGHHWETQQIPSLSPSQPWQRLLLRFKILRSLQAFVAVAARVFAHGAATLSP
# T1 sequence (looked up) 2: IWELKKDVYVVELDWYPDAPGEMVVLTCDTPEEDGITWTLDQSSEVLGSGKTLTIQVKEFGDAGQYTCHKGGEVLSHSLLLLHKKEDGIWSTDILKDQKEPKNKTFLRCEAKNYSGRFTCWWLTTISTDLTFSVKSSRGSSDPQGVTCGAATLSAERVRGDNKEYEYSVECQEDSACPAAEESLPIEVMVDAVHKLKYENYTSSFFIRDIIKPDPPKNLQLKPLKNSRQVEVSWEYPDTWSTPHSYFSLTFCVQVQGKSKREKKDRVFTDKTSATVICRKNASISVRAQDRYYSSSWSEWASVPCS
# Test name: cell-based or functional assay
Quantity measured: Mouse splenocyte (EC50; mIL-17 secretion, Evaluation Method C) (nM)
One number for each entry, in nM.

# count of solved cases: 5
ID-L253T (VHH, Optimised variant of 12G1) VHH: DVQLVESGGGQVQPGGSLSLSCESSVSIWSFKVMGWFRQVPGKQRELVATITTGGSPDYSDSVKGRFTISRDYDKRTLYLQMNSLKPEDTAVYYCAGRLWAHITSSGHDVWGQGTQVTVSS: 13.5
ID-L252T (VHH, Relative to ID-L253T: D1E, V40A, Q44E, R45L, I69L, L78V) VHH: EVQLVESGGGQVQPGGSLSLSCESSVSIWSFKVMGWFRQAPGKELELVATITTGGSPDYSDSVKGRFTLSRDYDKRTVYLQMNSLKPEDTAVYYCAGRLWAHITSSGHDVWGQGTQVTVSS: 5.2
ID-L242T (VHH, Relative to ID-L253T: D1E, S19R, S60R, V92R) VHH: EVQLVESGGGQVQPGGSLRLSCESSVSIWSFKVMGWFRQVPGKQRELVATITTGGSPDYRDSVKGRFTISRDYDKRTLYLQMNSLKPEDTARYYCAGRLWAHITSSGHDVWGQGTQVTVSS: 3.01
ID-L238T (VHH, Relative to ID-L253T: D1E, S19R, V40A, V92R) VHH: EVQLVESGGGQVQPGGSLRLSCESSVSIWSFKVMGWFRQAPGKQRELVATITTGGSPDYSDSVKGRFTISRDYDKRTLYLQMNSLKPEDTARYYCAGRLWAHITSSGHDVWGQGTQVTVSS: 5.54
ID-L243T (VHH, Relative to ID-L253T: D1E, S19R, P87S, V92R) VHH: EVQLVESGGGQVQPGGSLRLSCESSVSIWSFKVMGWFRQVPGKQRELVATITTGGSPDYSDSVKGRFTISRDYDKRTLYLQMNSLKSEDTARYYCAGRLWAHITSSGHDVWGQGTQVTVSS: 5

Quick one: give me Mouse splenocyte (EC50; mIL-17 secretion, Evaluation Method C) for each item below, same order please.
1. ID-L244T (VHH, Relative to ID-L253T: D1E, S19R) VHH: EVQLVESGGGQVQPGGSLRLSCESSVSIWSFKVMGWFRQVPGKQRELVATITTGGSPDYSDSVKGRFTISRDYDKRTLYLQMNSLKPEDTAVYYCAGRLWAHITSSGHDVWGQGTQVTVSS
2. ID-L249T (VHH, Relative to ID-L253T: D1E, V40A, R45L, D58H) VHH: EVQLVESGGGQVQPGGSLSLSCESSVSIWSFKVMGWFRQAPGKQLELVATITTGGSPHYSDSVKGRFTISRDYDKRTLYLQMNSLKPEDTAVYYCAGRLWAHITSSGHDVWGQGTQVTVSS
3. ID-L237T (VHH, Relative to ID-L253T: D1E, V92R) VHH: EVQLVESGGGQVQPGGSLSLSCESSVSIWSFKVMGWFRQVPGKQRELVATITTGGSPDYSDSVKGRFTISRDYDKRTLYLQMNSLKPEDTARYYCAGRLWAHITSSGHDVWGQGTQVTVSS
4. ID-L210T (VHH, Relative to ID-L253T: D1E, S19R, V92R) VHH: EVQLVESGGGQVQPGGSLRLSCESSVSIWSFKVMGWFRQVPGKQRELVATITTGGSPDYSDSVKGRFTISRDYDKRTLYLQMNSLKPEDTARYYCAGRLWAHITSSGHDVWGQGTQVTVSS
5. ID-L248T (VHH, Relative to ID-L253T: D1E, K43H, R45L) VHH: EVQLVESGGGQVQPGGSLSLSCESSVSIWSFKVMGWFRQVPGHQLELVATITTGGSPDYSDSVKGRFTISRDYDKRTLYLQMNSLKPEDTAVYYCAGRLWAHITSSGHDVWGQGTQVTVSS

Result block:
1: 6.62; 2: 4.27; 3: 6.35; 4: 5.63; 5: 4.47
